test system: GPR17+ cells (newly differentiated oligodendrocytes); assay: In vivo OPC differentiation, GPR17+ cells in brain; conditions: Mus musculus, po, 24 h, read-out: GPR17 Fold Induction (Over Vehicle)
parameter-measured: fold induction at 3 mg/kg

Some compounds with recorded fold induction at 3 mg/kg:
| compound | fold induction at 3 mg/kg |
| --- | --- |
| Cc1cccc(Cc2cnc(N3CCN(c4cnn5cc(-c6cnn(C)c6)ccc45)CC3)nc2)c1 | 1.22 |
| Cn1cc(-c2ccc3c(C4CCN(c5ncc(Cc6ccccc6)cn5)CC4)cnn3c2)cn1 | 1.83 |
| CC(c1ccc(F)cc1)c1cnc(N2CCN(c3cnn4cc(-c5cnn(C)c5)ccc34)CC2)nc1 (stereo not shown) | 2.82 |
| C[C@@H](OC(=O)N1CCN(c2cnc3cc(-c4cnn(C)c4)cnn23)CC1)c1ccc(C(F)(F)F)cc1 | 6.8 |
| Cn1cc(-c2ccc3c(N4CCN(C(=O)N5CCCCC5)CC4)cnn3c2)cn1 | 0.95 |

Consider C[C@@H](OC(=O)N1CCN(c2cnn3cc(-c4cnn(C)c4)ccc23)CC1)c1cccnc1 . Its measured fold induction at 3 mg/kg is 1.05

Data point: Cn1cc(-c2ccc3c(N4CCN(c5ncc(Cc6ccccn6)cn5)CC4)cnn3c2)cn1 ; fold induction at 3 mg/kg = 6.19

According to the records, this compound Cc1ccc([C@@H](C)OC(=O)N2CCN(c3cnn4cc(-c5cnn(C)c5)ccc34)CC2)cc1 displays fold induction at 3 mg/kg of 5.75

// fold induction at 3 mg/kg lookup, compound = Cn1cc(-c2ccc3c(N4CCN(c5ncc([S+]([O-])c6ccccc6)cn5)CC4)cnn3c2)cn1 (stereo not shown) , result: 1.32

Lab note: OCCn1cc(-c2ccc3c(N4CCN(c5ncc(Cc6ccccc6)cn5)CC4)cnn3c2)cn1 gave fold induction at 3 mg/kg of 6.43

* * *

test system: Oligodendrocyte progenitor cells (OPCs); test: In vitro OPC differentiation assay, MBP expression (immunocytochemistry); conditions: 72 hours of treatment; fold change over vehicle
Would you please tag the item TRUE when its MBP Fold Induction (Over vehicle) is 3 or above, and FALSE when it is below?

Before answering, review these 10 worked examples.
| compound | assay-target | class-label |
| --- | --- | --- |
| Cn1cc(-c2ccc3c(C4=CCN(c5ncc(Cc6ccccc6)cn5)C4)cnn3c2)cn1 | Oligodendrocyte progenitor cells (OPCs) | FALSE |
| CC(C)(C)OC(=O)N1CCN(c2cnn3cc(-c4cnn(C5CCOCC5)c4)ccc23)CC1 | Oligodendrocyte progenitor cells (OPCs) | TRUE |
| Cn1cc(-c2ccc3c(N4CCN(c5ncc(Cc6cccnc6)cn5)CC4)cnn3c2)cn1 | Oligodendrocyte progenitor cells (OPCs) | TRUE |
| Cn1cc(-c2ccc3c(N4CCN(C(=O)N5CCCCC5)CC4)cnn3c2)cn1 | Oligodendrocyte progenitor cells (OPCs) | TRUE |
| CC(C)(C)OC(=O)N1CCN(c2cnn3cc(-c4cnn(CCCN5CCOCC5)c4)ccc23)CC1 | Oligodendrocyte progenitor cells (OPCs) | TRUE |
| C[C@@H](OC(=O)N1CCN(c2cnn3cc(-c4cnn(C)c4)ccc23)CC1)c1ccccc1 | Oligodendrocyte progenitor cells (OPCs) | FALSE |
| Cn1cc(-c2ccc3c(N4CCN(C(=O)N5CCC[C@@H]5c5ccc(Cl)cc5)CC4)cnn3c2)cn1 | Oligodendrocyte progenitor cells (OPCs) | TRUE |
| Cn1cc(-c2cn3ncc(N4CCN(C(=O)OC(C)(C)C)CC4)c3cn2)cn1 | Oligodendrocyte progenitor cells (OPCs) | FALSE |
| COCCn1cc(-c2ccc3c(N4CCN(c5ncc(Cc6ccccc6)cn5)CC4)cnn3c2)cn1 | Oligodendrocyte progenitor cells (OPCs) | TRUE |
| C=C(c1ccc(F)cc1)c1cnc(N2CCN(c3cnn4cc(-c5cnn(C)c5)ccc34)CC2)nc1 | Oligodendrocyte progenitor cells (OPCs) | TRUE |

Moving on to the next compound.
hey, is MBP Fold Induction (Over vehicle) for this one >= 3? CN(Cc1ccccc1)S(=O)(=O)N1CCN(c2cnn3cc(-c4cnn(C)c4)ccc23)CC1
TRUE
